tested on: NCI-H23 lung; experiment: NCI tumour cell line growth inhibition, 48 h
MEASURED ENDPOINT: TGI (µM)
# number only, unit µM dropped from output

Data point: `O=C(O)C(=Cc1ccc(-c2ccccc2)cc1)C(=O)O` ; TGI = 32.2

For `O=C1Nc2ccccc2C1(c1ccc(O)cc1)c1ccc(O)cc1` the compound record lists TGI as 37.8

Record `CCC[CH2][Sn]1([CH2]CCC)[O]C(=O)CN=Cc2c(ccc3ccccc23)[O]1` . Reported TGI: 1.11

Kindly note the recorded TGI for `CCCn1c(=S)sc2c1nc(C)n1c(Nc3ccccc3)nnc21` , which is 11.1

`Cc1ccc(/C(Cl)=C/C=C(C#N)C#N)cc1` has a reported TGI of 3.36

* * *

system: OVCAR-5 ovarian; test: NCI tumour cell line growth inhibition, 48 h
MEASURED ENDPOINT: TGI

get_value(item= `N#Cc1c(=O)n(-c2ccccc2)c(O)c2c(N)n[nH]c12` , readout=TGI) returns > 100 µM

TGI reading for `Cc1ccc(C(=O)NC(C)C)cc1-c1ccc(C(=O)NCC2CC2)cc1` : > 25 µM

Record CCC(C)(C)C1CCC2c3c([nH]c4ccccc34)C3C(=O)N(c4ccc(OC)cc4)C(=O)C3C2C1 (stereo not given) , field TGI: 45.6 µM

Short answer for `Cn1c2ccccc2c2ccc3c(c21)C(=O)c1ccccc1C3=O` : TGI was > 100 µM

Reported TGI ( `O=S(=O)(SC1=NCCN1)c1ccc2ccccc2c1` ) = 49.6 µM

Please fill in: TGI reported for `CC(C)NC(NC(C)C)=C(S(=O)(=O)C(F)(F)C(F)(F)C(F)(F)C(F)(F)F)S(=O)(=O)C(F)(F)C(F)(F)C(F)(F)C(F)(F)F` = > 100 µM

Notebook: O=C(O)C1CCCN(CCc2c[nH]c3ccccc23)C1 (stereo not given) , TGI read as > 100 µM

The recorded TGI for `O=c1cc(N2CCNCC2)nc2ccccn12` is > 100 µM

Consider `CC(=O)Oc1cc(Cl)c(C)c2c1[C@H]1CC[C@]3(C)[C@@H](OC(C)=O)CC[C@H]3[C@@H]1CC2` . Its measured TGI is > 100 µM

// `COc1ccc(-c2onc(N)c2-c2cc(OC)c3c(c2)OCO3)cc1` : TGI value = > 94 µM

* * *

tested on: COLO 205 colon; assay: NCI tumour cell line growth inhibition, 48 h
Field: TGI. Provide a value for each of the compounds that follow.

// CCCC1N2CCCCC2[C@@H]2c3[nH]c4ccccc4c3CCN12 (stereo partly specified) : TGI value = > 100 µM

Just so you know, measured TGI for CNC(=O)C1CCc2nnc(-c3ccccc3)n21 (stereo unspecified) came out at > 100 µM

// TGI value for `O=C(N/N=C/C=C/c1ccccc1)[C@H](O)[C@@H](O)C(=O)N/N=C/C=C/c1ccccc1` : > 100 µM

# TGI of `O=c1c2ccccc2[nH]c2c(Cl)cc(Cl)c(NC3CCCCC3)c12` = > 100 µM

`O=C1c2ccccc2C(=O)c2c1cc(S(=O)(=O)O)c(O)c2O` has a reported TGI of > 100 µM

In plain terms, OC1(c2ccc(Cl)cc2)C(N2CCCC2)c2ccccc2C2=NCCN21 (stereo unspecified) has a documented TGI of 23.9 µM

* * *

Assign TGI to each entry below.
system: LOX IMVI melanoma; assay: NCI tumour cell line growth inhibition, 48 h

The compound listed as `CC(C)(C)c1cc(CCC(=O)Nc2ccc(Cl)cc2)nc(NC#N)n1` has a reported TGI of > 100 µM

Short answer for `c1ccc(-c2cn3c(nc4ccccc43)c(-c3ccccc3)n2)cc1` : TGI was > 100 µM

Looking up O=C1N=C(SC2OC(CO)C(O)C(O)C2O)S/C1=C\c1ccccc1 (configuration not stated) , I found its TGI recorded as > 100 µM

Record summary for CC1(C)C2CCC(CN)(C2)C1N (configuration not stated) : reported TGI = > 100 µM

Lab note: `Cc1ccc(S(=O)(=O)c2ccsc2NC(=O)C(F)(F)F)cc1` gave TGI of > 100 µM

Per the record, COC1(OC)CC2OC1C1N=NN(C(=O)OC(C)(C)C)C21 (configuration not stated) has TGI of > 100 µM

Record `O=c1[nH]nc(-c2ccccc2)n1/N=C/c1ccc([N+](=O)[O-])cc1` . Reported TGI: > 100 µM

The compound `O=S(=O)(O)C1=C2Sc3ccccc3N=C2c2ccccc2C1` showed TGI equal to 25.5 µM

Reported TGI for `CC(C)(C)/C(=N\Nc1nc2ccccc2[nH]1)c1ccccn1` was > 100 µM

The reported value for `CS(=O)(=O)c1ccc(-n2nc(C(F)(F)F)cc2OC2CCCC2)cc1` in terms of TGI is 54.6 µM

Lab note: `O=C(CCN(C(=O)O)S(=O)(=O)c1ccc(NC(=O)c2ccccc2)cc1)NC1CCCCC1` gave TGI of > 100 µM

Sure, the documented TGI for Cc1cc(Cl)cc2c1NC(=O)C2(O)CC(=O)c1ccco1 (configuration not stated) is > 69.8 µM

Noted for `N#C/C(=C\c1ccc2ccccc2c1)c1ccccc1` : its TGI reads > 100 µM

TGI in this record for CC(C)(C)OC(=O)CN1C(=O)CC1CC(=O)c1ccccc1 (configuration not stated) : 31.3 µM

Reported TGI of `Clc1ccccc1-c1nc2ccc(C34CC5CC(CC(C5)C3)C4)cc2[nH]1` : 29.8 µM

The measured TGI associated with c1nc(N2CC2)c2cnn(C3CCCCO3)c2n1 (configuration not stated) reads > 100 µM

Value of TGI reported for the compound `CCC/C=C/c1cc2c(cc1O)CC[C@@H]1[C@@H]2CC[C@]2(C)[C@@H](O)CC[C@@H]12` is 29.3 µM

The compound O=C(CC1(O)C(=O)Nc2c(Cl)ccc(Cl)c21)c1ccc(F)cc1 (configuration not stated) showed TGI equal to > 100 µM

So, `O=C1c2ccccc2C(=O)N1CCc1ncc[nH]1` ? Its TGI was > 100 µM

Entry under test: Cc1ccc(C(=O)N(CCCN)C(c2oc3cc(Cl)ccc3c(=O)c2Cc2ccccc2)C(C)C)cc1 (configuration not stated) . Its TGI was 1.98 µM

Sample `O=C(O)CCCn1nnc2c(=O)[nH][nH]c(=O)c21` ; TGI observed: > 100 µM

Reported TGI of `COC(=O)Nc1nc2ccc(Oc3ccc(NC(=O)Nc4cc(C(F)(F)F)ccc4F)cc3)cc2s1` : > 25 µM

* * *

system: MOLT-4 leukemia; test: NCI tumour cell line growth inhibition, 48 h
MEASURED ENDPOINT: TGI

For the compound CC1(C)C2CCC(CN)(C2)C1N (stereo unspecified) , the measured TGI on MOLT-4 leukemia was > 100 µM

Fill in: MOLT-4 leukemia TGI for `COc1ccc(C(=O)c2sc(N(C)C)nc2-c2ccccc2)cc1` = > 100 µM

Value (TGI, MOLT-4 leukemia) for record `CCCCCCCCn1ccc2cc(NC(=O)Cn3cc(CN4CCCC4)nn3)ccc21` = 5.9 µM

TGI value, target or system MOLT-4 leukemia, for CCCCCCCC(=O)OCC/C=C/C1OC1C1OC(=O)/C=C\C=C\c2nc(oc2C)/C=C(/C)CCC2OC2C1OC(=O)NC(C)=O (stereo unspecified) : 1.81 µM

TGI value, target or system MOLT-4 leukemia, for `O=C(O)c1ccccc1/C=N/NC1=NCCN1` : > 100 µM

MOLT-4 leukemia assay, compound CC1CN1C(=O)NCCCCCCNC(=O)N1CC1C (stereo unspecified) , recorded TGI = > 100 µM

* * *

tested on: U251 CNS; test: NCI tumour cell line growth inhibition, 48 h
Assignment: determine reported TGI for the given compounds.

The measured TGI associated with COc1ccc(CC2CCc3nc(N)nc(N)c3C2)cc1OC (stereo not given) reads > 100 µM

So, `COc1cc2cc(Oc3ccc(NC(=O)Nc4ccc(Cl)c(C(F)(F)F)c4)cc3)c(C)nc2cc1OCCN1CCOCC1` ? Its TGI was 3.89 µM

// TGI value for `Nc1cccnc1NCC1(CO)CCCC1` : > 100 µM

Lab book: TGI of `O=c1cc(-c2ccccc2)oc2cc(OC/C(=N/O)c3ccccc3)ccc12` noted as 20 µM

For `Ic1ccc2c(c1)N(c1ccccc1)c1cc(N=c3ccc4nc5ccc(I)cc5n(-c5ccccc5)c-4c3)ccc1N2` the compound record lists TGI as > 100 µM

TGI reading for c1nc(N2CC2)c2cnn(C3CCCCO3)c2n1 (stereo not given) : > 100 µM

Item: `O=C1N[C@H]2c3c(Cl)sc(Cl)c3[C@@H](O)[C@H]2O1` | TGI: > 100 µM

Lab note: NCCCCC(NC(=O)C(N)Cc1ccc(O)cn1)C(=O)O (stereo not given) gave TGI of > 100 µM

The compound identified as `O=S(=O)(O)C1=C2Sc3ccccc3N=C2c2ccccc2C1` registered its TGI at 25.4 µM

Value of measured TGI for the entry `Cc1c(C(=O)C/C(=N/NC(=O)C[N+](C)(C)C)C(=O)Nc2ccc(Cl)cc2)[n+](=O)c2ccccc2n1O` : > 100 µM

Ref: PubChem BioAssay (NCI)
